All figures here come from PubChem BioAssay (EPA / NIEHS).

# Read-out: Macrophage colony-stimulating factor (MCSF), CSF1 (gene 1435)
# procedure-details: BSK_CASM3C_MCSF: BioMAP Diversity Plus: CASM3C Assay for Macrophage colony-stimulating factor (MCSF) Biomarker Activity (AID 2283044);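 note: M-CSF protein amount quantified by ELISA after 24 h exposure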
# measurement-context: primary human coronary artery smooth muscle cells; actives raise or lower the signal
Calls of active or inactive are those of the source. Rule for the calls: active = hit-call score of the fitted dose curve at least 0.9, where 1 is the maximum; inactive = score below 0.9.
Classes to choose from: active, inactive

Check out these entries, answers already filled in.
OCCN1CCOCC1 ... inactive
CC=CC(=O)C1=C(C)C=CCC1(C)C ... inactive
CCCCN(CCO)CCO ... inactive
C#C[C@]1(O)CC[C@H]2[C@@H]3CCc4cc(O)ccc4[C@H]3CC[C@@]21C ... inactive
COc1ccccc1NC(=O)CC(C)=O ... inactive

What call does the record list for CC1=CC(C)C(C=O)C(C)C1 (configuration not stated) (tested in a mixture with another compound) ? inactive

How about this compound: `C=C(F)C(=O)OC(C(F)(F)F)C(F)(F)F` inactive

Lookup `CCCCCCCCCCCCS` inactive

Proceed to `c1ccc2c(c1)-c1ccc3ccc4cccc5cc-2c1c3c45` inactive

Here is the next compound: `c1ccc(Sc2ccccc2)cc1` active

Field entry: OCC(F)(OC(F)(F)C(F)(OC(F)(F)C(F)(F)C(F)(F)F)C(F)(F)F)C(F)(F)F (configuration not stated) inactive

Moving on to the next compound: `C=C(C)C(=O)OCCC(F)(F)C(F)(F)C(F)(F)C(F)(F)C(F)(F)C(F)(F)C(F)(F)C(F)(F)F` inactive
